Values were extracted from patent US8871753B2.

// reported ALK % of inhibition at a concentration of 500 nM or 1 mM per item
- System Under Test: Recombinant Human Anaplastic Lymphoma Kinase (Homo sapiens, UniProt Q9UM73)
- Construct: purchased Invitrogen, Carlsbad, Calif
- Sequence (Q9UM73 19-1620): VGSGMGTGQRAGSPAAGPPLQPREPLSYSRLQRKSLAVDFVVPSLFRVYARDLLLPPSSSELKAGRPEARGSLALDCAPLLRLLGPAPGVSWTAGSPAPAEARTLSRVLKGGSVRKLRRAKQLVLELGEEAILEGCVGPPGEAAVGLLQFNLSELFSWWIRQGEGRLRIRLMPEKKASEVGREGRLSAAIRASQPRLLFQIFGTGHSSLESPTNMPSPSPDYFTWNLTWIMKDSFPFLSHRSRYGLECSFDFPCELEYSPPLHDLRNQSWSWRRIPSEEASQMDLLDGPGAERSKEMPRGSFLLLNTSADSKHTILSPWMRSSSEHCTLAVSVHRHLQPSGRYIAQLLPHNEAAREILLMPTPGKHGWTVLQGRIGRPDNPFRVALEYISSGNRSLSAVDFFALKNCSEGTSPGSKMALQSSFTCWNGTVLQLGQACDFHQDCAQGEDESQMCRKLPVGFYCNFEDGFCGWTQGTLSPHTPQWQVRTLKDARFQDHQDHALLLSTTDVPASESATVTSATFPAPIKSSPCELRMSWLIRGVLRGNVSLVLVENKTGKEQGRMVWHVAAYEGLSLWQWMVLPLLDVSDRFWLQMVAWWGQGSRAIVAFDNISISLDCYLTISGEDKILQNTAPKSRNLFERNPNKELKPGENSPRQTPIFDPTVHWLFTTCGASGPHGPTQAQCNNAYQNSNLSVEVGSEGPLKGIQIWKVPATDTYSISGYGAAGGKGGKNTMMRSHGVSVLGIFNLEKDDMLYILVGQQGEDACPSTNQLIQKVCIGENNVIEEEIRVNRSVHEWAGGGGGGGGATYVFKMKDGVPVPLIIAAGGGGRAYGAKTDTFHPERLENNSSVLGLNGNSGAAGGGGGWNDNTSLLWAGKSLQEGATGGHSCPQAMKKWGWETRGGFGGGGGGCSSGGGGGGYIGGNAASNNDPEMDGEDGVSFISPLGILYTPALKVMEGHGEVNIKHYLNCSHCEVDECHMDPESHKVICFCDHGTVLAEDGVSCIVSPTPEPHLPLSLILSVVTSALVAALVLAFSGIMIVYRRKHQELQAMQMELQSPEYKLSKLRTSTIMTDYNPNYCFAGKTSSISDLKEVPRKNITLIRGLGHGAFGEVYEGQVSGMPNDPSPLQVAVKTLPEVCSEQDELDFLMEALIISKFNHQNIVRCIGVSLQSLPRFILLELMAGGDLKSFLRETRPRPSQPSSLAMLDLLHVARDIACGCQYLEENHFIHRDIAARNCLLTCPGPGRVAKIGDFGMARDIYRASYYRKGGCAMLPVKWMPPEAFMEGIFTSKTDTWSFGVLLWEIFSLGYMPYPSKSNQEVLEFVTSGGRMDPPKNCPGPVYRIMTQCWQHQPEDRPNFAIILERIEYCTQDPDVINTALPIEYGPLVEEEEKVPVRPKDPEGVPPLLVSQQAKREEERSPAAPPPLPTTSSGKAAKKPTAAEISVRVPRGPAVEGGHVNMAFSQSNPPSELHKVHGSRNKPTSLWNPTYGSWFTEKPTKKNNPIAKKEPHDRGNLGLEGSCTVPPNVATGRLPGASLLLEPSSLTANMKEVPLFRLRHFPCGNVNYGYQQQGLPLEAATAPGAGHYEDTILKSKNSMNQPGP
- Method Summary: ALK HTRF kinase assay
- Assay type: biochemical
- Run Parameters: compound at 500 nM or 1 mM; 90 μM ATP
Where a name gives a salt, the structure may show the parent alone.
Observable: ALK % of inhibition at a concentration of 500 nM or 1 mM

| Molecule | Recorded Result |
| --- | --- |
| NCCC(=O)Nc1ccc2cc1CCc1cccc(c1)Nc1ncc(Cl)c(n1)N2 [Example A108, bis(trifluoroacetate)] | 32% |
| Cc1cc(C(=O)N2CCC(CCC(=O)Nc3ccc4cc3CCc3cccc(c3)Nc3ncc(Cl)c(n3)N4)CC2)no1 [Example A124, trifluoroacetate] | 34% |
| COc1cc2cc(c1)Nc1nc(ncc1Cl)Nc1cccc(c1)CC2 [Example A21, trifluoroacetate] | 65% |
| Cc1ccc(N2CCC(CC(=O)Nc3ccc4cc3CCc3cncc(c3)Nc3ncc(Cl)c(n3)N4)CC2)nn1 [Example A173, tris(trifluoroacetate)] | 40% |
| O=C(CC1CCN(C(=O)c2ccns2)CC1)Nc1ccc2cc1CCc1cncc(c1)Nc1ncc(Cl)c(n1)N2 [Example A168, bis(trifluoroacetate)] | 27% |
| O=C(CN1CCN(c2nc3cccnc3o2)CC1)Nc1ccc2cc1CCc1cncc(c1)Nc1ncc(Cl)c(n1)N2 [Example A118, tris(trifluoroacetate)] | 29% |
| CN(C)C(=O)N1CCC(CC(=O)Nc2ccc3cc2CCc2cccc(c2)Nc2ncc(Cl)c(n2)N3)CC1 [Example A80, trifluoroacetate] | 21% |
| N#Cc1ccc(N2CCC(CC(=O)Nc3ccc4cc3CCc3cncc(c3)Nc3ncc(Cl)c(n3)N4)CC2)cc1 [Example A221, tris(trifluoroacetate)] | 22% |
| Cc1cc(C(=O)N2CCC(C(=O)Nc3ccc4cc3CCc3cccc(c3)Nc3ncc(Cl)c(n3)N4)CC2)no1 [Example A120, trifluoroacetate] | 42% |
| Cc1cc(C)c(C#N)c(N2CCC(CC(=O)Nc3ccc4cc3CCc3cncc(c3)Nc3ncc(Cl)c(n3)N4)CC2)n1 [Example A239, tris(trifluoroacetate)] | 17% |
| Cc1cc(C(=O)N2CCC(CC(=O)Nc3ccc4cc3CCc3cncc(c3)Nc3ncc(Cl)c(n3)N4)CC2)n[nH]1 [Example A163, bis(trifluoroacetate)] | 29% |
| O=C(CC1CCN(c2ncccn2)CC1)Nc1ccc2cc1CCc1cncc(c1)Nc1ncc(Cl)c(n1)N2 [Example A172, tris(trifluoroacetate)] | 28% |
